ASSAY SYSTEM: AMP-activated protein kinase, AMPK (Homo sapiens) (UniProt P54646+O43741+P54619+Q9UGJ0+Q9Y478+Q13131+Q9UGI9)
RUN DESCRIPTION: AMP-dependent Kinase enzyme assay. An in vitro enzyme assay that detects ADP turnover that is directly proportional to AMPK activity. This uses naive AMPK that is activated during the assay with MK-8722
Type: functional
Set-up: scale not given: direction of the effect not stated beside the values
CONDITION CONTEXT: 30 µM
REPORTED METRIC: Percent Effect (%)
Quick reminder: number only, in %, skip the unit.

[
  {
    "COMPOUND": "CCN(Cc1ccoc1)c1ncc(S(N)(=O)=O)s1",
    "Percent Effect (%)": -1.73
  },
  {
    "COMPOUND": "CC(=O)N1CCc2nc(N(C)C)nc(NCCc3ccccc3)c2CC1",
    "Percent Effect (%)": 3.82
  },
  {
    "COMPOUND": "O=C(NCc1cccnc1N1CCCC(O)C1)c1ccc2[nH]nnc2c1 (configuration not stated)",
    "Percent Effect (%)": -3.08
  },
  {
    "COMPOUND": "Cn1ccnc1CN1CCCC1CCc1ccccc1 (configuration not stated)",
    "Percent Effect (%)": -8.09
  },
  {
    "COMPOUND": "O=C(NCc1nc[nH]n1)c1cc(COc2cccc(F)c2)[nH]n1",
    "Percent Effect (%)": 2.9
  }
]

Query: Data request, read-out Percent Effect, for O=C(Nc1ccccc1OCCc1ccccn1)N1CC[C@@H](O)C1
Response: 8.55

Query: Next record, please: COc1cc(CN2CC[C@@H](N3CCCCCC3)[C@H](O)C2)cc(Cl)c1OC
Response: 13.6

Query: And what about the compound CN(Cc1ccc([S+](C)[O-])cc1)c1cncc(Br)c1 (configuration not stated) ?
Response: 13.9

Query: Can you check CCCc1nn(Cc2ccc(Br)s2)c(=O)o1 next?
Response: 9.29

Query: Same read-out for CCC[C@@H]1CN(Cc2cc(C#N)n(C)c2C)C[C@H]1NS(C)(=O)=O ?
Response: -87.1

Query: CC1CN(CC(=O)NCCc2ccccc2)CCN1c1nccs1 (configuration not stated) ?
Response: 25.7

Query: # iterate: CC(C(=O)N1CCCCC1)N1CCN(c2ncc(Cl)cn2)CC1 (configuration not stated)
Response: -3.64

----------
Percent Effect overview
ASSAY SYSTEM: AMP-activated protein kinase, AMPK (Homo sapiens) (UniProt P54646+O43741+P54619+Q9UGJ0+Q9Y478+Q13131+Q9UGI9)
RUN DESCRIPTION: AMP-dependent Kinase enzyme assay. An in vitro enzyme assay that detects ADP turnover that is directly proportional to AMPK activity. This uses naive AMPK that is activated during the assay with MK-8722
Format: functional
Parameters: scale not given: direction of the effect not stated beside the values
CONDITION CONTEXT: 30 µM

Example cases with answers are listed next.
[
  {
    "COMPOUND": "COc1ccc(Cn2c(CCc3c(C)n[nH]c3C)n[nH]c2=O)cc1",
    "MEASUREMENT": "-3.53%"
  },
  {
    "COMPOUND": "CN1CCC(Cc2cnc(CNC(=O)Cc3cccc(F)c3)cn2)CC1",
    "MEASUREMENT": "3.91%"
  },
  {
    "COMPOUND": "CCc1csc(CNc2cc(C)nc(-c3cccnc3)n2)n1",
    "MEASUREMENT": "18.4%"
  }
]

Query: Request the reported Percent Effect associated with Cc1noc(C)c1C(=O)N[C@@H]1CCC[C@@H](Oc2ccccc2)[C@@H]1O
Response: 19.1%

Query: Same thing, different compound: O=C1CCC(=O)N1CCn1nnc(-c2cccc(Cl)c2)n1
Response: -7.61%

Query: Another: CSc1ncccc1C(=O)NC(C)c1cccc(N2CCOC2=O)c1 (stereo unspecified)
Response: -0.0368%

Provenance of the data: ChEMBL document CHEMBL3988442
